Test: qHTS Validation assay for Inhibitors of Plasmodium falciparum Dd2 growth in vitro; note: nearly all actives have a fitted effect of over 70% in size
Conditions: P. falciparum Dd2 in RBCs, SYBR Green growth, 72 h; series mostly up to 28.7 µM
Excerpt: Malaria, a parasitic disease spread to humans through the bite of a Plasmodium infected Anopheles mosquito, continues to be a global health burden affecting millions of people, with an estimated 228 million cases and 405,000 deaths in 2018. Concerns about safety and limitations of current antimalarial treatments strongly emphasize the need to develop new therapeutic options. […]
In all, about 4,100 compounds went through this assay and about 1,600 (39%) were called active. Another 25% or so got no clear call; they are omitted. Calls come from the whole dose curve; as a rule, active = well fitted inhibition curve with a large enough effect; inconclusive = small, poorly fitted or top-dose-only effect; inactive = no such curve, though single readings can be large or run the other way. The list shows a part of the results.
Classes used: 1 for active, -1 for inactive

CHEM SMILES	CLASSIFICATION
CN(c1ccccc1)c1cc(=O)c2ccnc(-c3ccccc3O)c2o1	-1
Cc1cccc(NC(=O)CCN2CCN(c3ccccc3F)CC2)c1	-1
COc1cccc(OC)c1C(=O)Nc1cccc(-c2nc3cc(C)cc(C)c3o2)c1	-1
Cc1noc(C)c1-c1nccc2c(=O)cc(N(C)c3ccccc3)oc12	1
O=C(Nc1ccccc1)[C@H]1O[C@H](CCN2CCN(c3ccc(F)cc3)CC2)CC[C@@H]1O	1

* * *

Test: qHTS Validation assay for Inhibitors of Plasmodium falciparum Dd2 growth in vitro; note: nearly all actives have a fitted effect of over 70% in size; note: potency is the fitted concentration of half-maximal effect
Conditions: P. falciparum Dd2 in RBCs, SYBR Green growth, 72 h; series mostly up to 28.7 µM
Source text: Malaria, a parasitic disease spread to humans through the bite of a Plasmodium infected Anopheles mosquito, continues to be a global health burden affecting millions of people, with an estimated 228 million cases and 405,000 deaths in 2018. Concerns about safety and limitations of current antimalarial treatments strongly emphasize the need to develop new therapeutic options. […]
The whole screen tested about 4,100 compounds, of which about 1,600 (39%) were called active. Roughly 25% stayed inconclusive and do not appear here. This is one part of the list.

COMPOUND	Potency
COc1ccccc1NC(=O)N1CC(=O)Nc2sc3c(c2C1c1ccccc1)CCCC3 (stereo unspecified)	15 µM (active)
COc1ccc(C(=O)N[C@@H]2CCC[C@@H]2C(=O)NCc2ccc(C)o2)cn1	inactive
O=C(c1cc2cc(Br)ccc2[nH]1)N1CCc2ccccc21	inactive
COc1ccc(Cl)cc1C(=O)NCc1nnc2c(-c3nc(C(C)C)no3)cccn12	inactive
CCOc1ccccc1NC(=O)c1c(NC(=O)COc2ccccc2)sc2c1CCCCC2	inactive
CC1=C[C@@H](CN2CCC(C)CC2)[C@H](C(C)C)C[C@H]1Cc1nnc(-c2cccnc2)o1	15.3 µM (active)

* * *

Test: qHTS Validation assay for Inhibitors of Plasmodium falciparum Dd2 growth in vitro; note: nearly all actives have a fitted effect of over 70% in size
Conditions: P. falciparum Dd2 in RBCs, SYBR Green growth, 72 h; series mostly up to 28.7 µM
The campaign covered roughly 4,100 compounds. About 1,600 (39%) were called active. Roughly 25% stayed inconclusive and do not appear here. Calls follow the shape of the dose curve; as a rule, active = well fitted inhibition curve with a large enough effect; inconclusive = small, poorly fitted or top-dose-only effect; inactive = no such curve, though single readings can be large or run the other way. The list shows a part of the results.
Classes used: yes = active, no = inactive

COMPOUND	CLASSIFICATION
COc1ccc(C2C=C(c3ccc(Cl)cc3)Nc3nc(-c4ccc(Cl)cc4)nn32)cc1 (stereo not given)	yes
Cc1ccc(-c2nc3n(n2)C(c2ccccc2Cl)C=C(c2ccc(Cl)cc2)N3)cc1 (stereo not given)	yes
COc1cccc(CC(=O)N2CCCn3nc(C)c(-c4ccccc4OCc4ccccc4)c32)c1	yes
COc1ccc(C2C=C(c3ccc(F)cc3)Nc3nc(-c4ccc(Cl)cc4)nn32)cc1 (stereo not given)	yes
Cc1nn2c(c1-c1ccccc1Oc1ccccc1)N(C(=O)Cc1cccc(F)c1)CCC2	no
Cc1ccc(C2=CC(c3ccc(Cl)cc3)n3nc(-c4ccc(C)cc4)nc3N2)cc1 (stereo not given)	yes
Cc1cc(C)c(CNC(=O)c2cc(-c3ccnn3C)cc3c2OCCN3C(C)C)c(=O)[nH]1	yes
COc1ncc(-c2cc(C(=O)NCc3c(C)cc(C)[nH]c3=O)c3c(c2)N(C(C)C)CCO3)cn1	yes
O=C1NC(=NC2CCCC2)C2(CCN(Cc3ccccc3)C2)N1c1cc(F)cc(F)c1 (stereo not given)	yes
Cc1cc(C)c(CNC(=O)c2cc(-c3cccnc3)cc3c2OCCN3C(C)C)c(=O)[nH]1	yes
COc1ccc(CN2CCCn3nc(C)c(-c4ccccc4Oc4ccccc4)c32)cc1O	yes
CC(C)(C)n1[nH]c2c3c(ccc2c1=O)C(=O)c1ccccc1C3=O	yes
CC1(C)C(=O)N(CC2CCOCC2)[C@H]2CN(CCCc3ccccc3)C[C@@H]2[S+]1(=O)[O-]	no
CCCCCCCn1c(NC(=O)CC)nc2ccccc21	yes
O=C(C1CCCC1)N1CCN(c2nnc3c(Cl)cccn23)CC1	no
CC(=O)Nc1cccc(-c2cc(C(=O)NCc3c(C)cc(C)[nH]c3=O)c3c(c2)N(C(C)C)CCO3)c1	yes
Cc1cccc(C)c1NC(=O)CN1C(=O)NC(c2ccccc2Cl)C2=C1COC2=O (stereo not given)	no
COc1ccc(C2C=C(c3ccccc3)Nc3nc(NS(=O)(=O)c4ccccc4)nn32)cc1 (stereo not given)	no
O=C(Nc1nc2ccccc2n1Cc1ccccc1)c1ccc(COc2ccccc2[N+](=O)[O-])o1	yes
Cc1nc(-c2ccccc2OC2CN(S(=O)(=O)Cc3ccccc3F)C2)no1	no
